So I've got a bunch of compounds here, and I need their half-life values.
# method: Metabolism in pooled human liver microsomes
# Assay type: in vitro ADME
# measurementParameters: pH 7.4; pooled human liver microsomes, disappearance of parent; read-out: HLMs t1/2
Report as a plain number; the unit min is understood.

// half-life lookup, key: O=C(C[C@H]1CN(C2=Nc3cc(Cl)ccc3Oc3ccccc32)CCN1)OC1CCCC1 [DR]
30

// half-life lookup, key: CC(C)OC(=O)CC1CN(C2=Nc3ccc(F)cc3Oc3ccccc32)CCN1 (centres unmarked) [M]
30

// half-life lookup, key: O=C(C[C@H]1CN(C2=Nc3cc(Cl)ccc3Oc3ccccc32)CCN1)O[C@H]1CCOC1 [EQ]
15

// half-life lookup, key: CN1CCN(C2=Nc3cc(Cl)ccc3Oc3ccccc32)C[C@@H]1CC(=O)NCC(F)(F)C(F)(F)F [EU]
60

// half-life lookup, key: CCOC(=O)C[C@H]1CN(C2=Nc3cc(Cl)ccc3Oc3ccccc32)CCN1CCC(C)C [ER]
5

// half-life lookup, key: CCOC(=O)CC1CN(C2=Nc3cc(Cl)ccc3Oc3ccccc32)CCN1 (centres unmarked) [A]
30

// half-life lookup, key: O=C(C[C@H]1CN(C2=Nc3cc(Cl)ccc3Oc3ccccc32)CCN1)OC1CCOCC1 [DV]
60

###

# measuredOn: human D2s dopamine receptors (Homo sapiens, UniProt P14416)
# Sequence (P14416 1-414 isoform P14416-2): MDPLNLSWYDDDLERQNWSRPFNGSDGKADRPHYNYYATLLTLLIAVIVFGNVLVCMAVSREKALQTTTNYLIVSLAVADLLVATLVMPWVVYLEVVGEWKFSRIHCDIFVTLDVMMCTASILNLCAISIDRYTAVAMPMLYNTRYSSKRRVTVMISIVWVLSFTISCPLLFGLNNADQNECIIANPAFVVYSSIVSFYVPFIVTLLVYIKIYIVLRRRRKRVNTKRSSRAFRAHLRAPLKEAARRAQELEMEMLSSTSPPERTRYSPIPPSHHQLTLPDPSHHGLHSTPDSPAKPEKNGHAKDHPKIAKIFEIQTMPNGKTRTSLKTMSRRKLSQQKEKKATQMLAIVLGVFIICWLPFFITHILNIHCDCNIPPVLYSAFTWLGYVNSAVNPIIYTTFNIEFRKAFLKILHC
pKi: −log10 of the molar value.
observable: pKi

// pKi lookup, key: `COC(=O)C[C@H]1CN(C2=Nc3cc(Cl)ccc3Oc3ccccc32)CCN1CC1CC1`
5.61 to 6.20

// pKi lookup, key: CC(C)OC(=O)CC1CN(C2=Nc3cc(Cl)ccc3Oc3ccccc32)CCN1 (centres unmarked)
5.01 to 5.60

// pKi lookup, key: `O=C(C[C@H]1CN(C2=Nc3cc(Cl)ccc3Oc3ccccc32)CCN1)N1CCC[C@H]1C(F)(F)F`
5.01 to 5.60

// pKi lookup, key: CCOC(=O)CC1CN(C2=Nc3ccccc3Oc3ccc(Cl)cc32)CCN1 (single isomer, unassigned)
5.01 to 5.60

// pKi lookup, key: `CC(C)(O)CCOC(=O)C[C@H]1CN(C2=Nc3cc(Cl)ccc3Oc3ccccc32)CCN1`
5.61 to 6.20

// pKi lookup, key: `COC(=O)C[C@H]1CN(C2=Nc3cc(Cl)ccc3Oc3ccccc32)CCN1C`
< 5.00

// pKi lookup, key: `COc1ccc(NC(=O)C[C@H]2CN(C3=Nc4cc(Cl)ccc4Oc4ccccc43)CCN2)cn1`
5.61 to 6.20

// pKi lookup, key: `C[C@H](O)C[C@H](C)OC(=O)C[C@H]1CN(C2=Nc3cc(Cl)ccc3Oc3ccccc32)CCN1`
5.61 to 6.20

// pKi lookup, key: `CC(C)(CO)NC(=O)C[C@H]1CN(C2=Nc3cc(Cl)ccc3Oc3ccccc32)CCN1`
5.61 to 6.20

// pKi lookup, key: `COCCNC(=O)C[C@H]1CN(C2=Nc3cc(Cl)ccc3Oc3ccccc32)CCN1`
5.61 to 6.20

// pKi lookup, key: `O=C(C[C@H]1CN(C2=Nc3cc(Cl)ccc3Oc3ccccc32)CCN1)NCCO`
5.61 to 6.20

###

# measuredOn: human D2L dopamine receptors (Homo sapiens, UniProt P14416)
# Construct: expressed in transfected cells; host or cells: insect Sf9 cells (membranes)
# Sequence (P14416 whole entry): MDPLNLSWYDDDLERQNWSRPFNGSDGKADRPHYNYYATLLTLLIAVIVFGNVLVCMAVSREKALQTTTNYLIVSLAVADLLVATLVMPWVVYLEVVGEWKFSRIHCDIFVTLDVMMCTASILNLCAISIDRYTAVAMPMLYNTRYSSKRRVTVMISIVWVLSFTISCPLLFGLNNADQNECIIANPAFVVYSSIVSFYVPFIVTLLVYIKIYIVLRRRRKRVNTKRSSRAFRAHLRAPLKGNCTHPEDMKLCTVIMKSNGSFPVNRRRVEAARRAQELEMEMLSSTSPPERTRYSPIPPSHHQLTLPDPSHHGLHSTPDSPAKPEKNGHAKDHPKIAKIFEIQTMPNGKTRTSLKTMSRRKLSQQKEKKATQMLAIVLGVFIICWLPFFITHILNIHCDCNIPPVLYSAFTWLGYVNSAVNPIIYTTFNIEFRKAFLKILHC
# method: hD2L receptor radioligand binding ([3H]spiperone)
# measurementParameters: pKi reported on a scale of 1 through 5; read-out: D2L (pKi) (converted)
So I've got a bunch of compounds here, and I need their Ki values.

// Ki lookup, key: O=C(C[C@H]1CN(C2=Nc3cc(Cl)ccc3Oc3ccccc32)CCN1)NCCCO [Compound FS]
0.631 to 2.45 µM

// Ki lookup, key: O=C(O)CC1CN(C2=Nc3cc(Cl)ccc3Oc3ccccc32)CCN1 (centres unmarked) [Compound E]
> 10 µM

// Ki lookup, key: CN(CCO)C(=O)C[C@H]1CN(C2=Nc3cc(Cl)ccc3Oc3ccccc32)CCN1 [FO]
2.51 to 9.77 µM

// Ki lookup, key: CCOC(=O)CC1CN(C2=Nc3cc(Cl)ccc3Oc3ccccc32)CCN1C (centres unmarked) [DN]
2.51 to 9.77 µM

// Ki lookup, key: COC(=O)CC1CN(C2=Nc3cc(C(F)(F)F)ccc3Oc3ccccc32)CCN1 (centres unmarked) [DQ]
2.51 to 9.77 µM

###

So I've got a bunch of compounds here, and I need their Ki values.
Target protein (sequence): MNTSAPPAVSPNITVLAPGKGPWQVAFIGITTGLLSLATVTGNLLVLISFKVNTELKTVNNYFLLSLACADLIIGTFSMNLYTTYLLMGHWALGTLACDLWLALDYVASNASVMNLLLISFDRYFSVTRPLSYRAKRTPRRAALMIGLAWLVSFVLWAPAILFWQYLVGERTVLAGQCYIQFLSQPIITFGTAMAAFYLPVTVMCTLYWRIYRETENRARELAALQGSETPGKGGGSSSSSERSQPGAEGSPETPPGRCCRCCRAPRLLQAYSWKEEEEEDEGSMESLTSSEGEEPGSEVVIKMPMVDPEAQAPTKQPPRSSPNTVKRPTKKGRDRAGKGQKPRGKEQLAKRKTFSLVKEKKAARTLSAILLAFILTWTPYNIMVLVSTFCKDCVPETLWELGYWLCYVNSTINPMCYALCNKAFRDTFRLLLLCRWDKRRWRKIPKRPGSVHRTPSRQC

// Ki lookup, key: CCOC(=O)CC1CN(C2=Nc3cc(Cl)ccc3Oc3ccccc32)CCN1 (stereo not shown)
5.01 to 9.77 µM

// Ki lookup, key: `CN(CCO)C(=O)C[C@H]1CN(C2=Nc3cc(Cl)ccc3Oc3ccccc32)CCN1`
2.51 to 4.9 µM

// Ki lookup, key: `C[C@@H](O)CNC(=O)C[C@H]1CN(C2=Nc3cc(Cl)ccc3Oc3ccccc32)CCN1`
> 10 µM

// Ki lookup, key: `COc1ccc(NC(=O)C[C@H]2CN(C3=Nc4cc(Cl)ccc4Oc4ccccc43)CCN2)cn1`
5.01 to 9.77 µM

// Ki lookup, key: `COCCNC(=O)C[C@H]1CN(C2=Nc3cc(Cl)ccc3Oc3ccccc32)CCN1CCO`
> 10 µM

// Ki lookup, key: `C[C@H](CC(C)(C)O)OC(=O)C[C@H]1CN(C2=Nc3cc(Cl)ccc3Oc3ccccc32)CCN1`
5.01 to 9.77 µM

// Ki lookup, key: CCOC(=O)CC1CN(C2=Nc3ccccc3Oc3ccc(Cl)cc32)CCN1 (single isomer, unassigned)
> 10 µM

// Ki lookup, key: COC(=O)c1ccc(OCC2CN(C3=Nc4cc(Cl)ccc4Oc4ccccc43)CCN2)cc1 (stereo not shown)
5.01 to 9.77 µM

// Ki lookup, key: CCOC(=O)CC1CN(C2=Nc3ccc(F)cc3Oc3ccccc32)CCN1 (stereo not shown)
> 10 µM

// Ki lookup, key: `O=C(C[C@H]1CN(C2=Nc3cc(Cl)ccc3Oc3ccccc32)CCN1)NCC(F)F`
5.01 to 9.77 µM

###

# measuredOn: 5-HT2A receptor (Rattus norvegicus)
# Construct: Eight strips of tissue (0.5 cm long) were cut. and were mounted in 10 ml organ baths; tissue Charles River Laboratories; host or cells: rat aorta strips, endothelium removed
# Sequence (P14842 whole entry): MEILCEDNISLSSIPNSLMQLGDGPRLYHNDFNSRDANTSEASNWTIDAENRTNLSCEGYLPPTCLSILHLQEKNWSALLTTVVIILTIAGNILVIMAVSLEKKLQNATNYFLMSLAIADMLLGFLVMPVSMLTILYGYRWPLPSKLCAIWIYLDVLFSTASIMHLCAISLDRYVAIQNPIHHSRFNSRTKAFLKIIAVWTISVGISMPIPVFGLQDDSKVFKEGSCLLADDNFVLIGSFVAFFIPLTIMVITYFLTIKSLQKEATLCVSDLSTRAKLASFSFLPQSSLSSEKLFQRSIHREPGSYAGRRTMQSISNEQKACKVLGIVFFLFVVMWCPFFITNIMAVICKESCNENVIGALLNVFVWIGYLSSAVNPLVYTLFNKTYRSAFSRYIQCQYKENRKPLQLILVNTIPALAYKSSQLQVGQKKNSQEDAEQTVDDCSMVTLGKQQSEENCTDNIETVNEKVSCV
# method: cell-based
# measurementParameters: read-out: 5HT2A (pKb) (converted)
observable: Kb

// Kb lookup, key: C[C@H](O)C[C@H](C)OC(=O)C[C@H]1CN(C2=Nc3cc(Cl)ccc3Oc3ccccc32)CCN1 [EO]
10 to 30.9 nM

// Kb lookup, key: COc1ccc(NC(=O)C[C@H]2CN(C3=Nc4cc(Cl)ccc4Oc4ccccc43)CCN2)cn1 [FP]
10 to 30.9 nM

// Kb lookup, key: O=C(O)C[C@H]1CN(C2=Nc3cc(Cl)ccc3Oc3ccccc32)CCN1 [Compound Q]
10 to 30.9 nM

// Kb lookup, key: CCOC(=O)C[C@H]1CN(C2=Nc3cc(Cl)ccc3Oc3ccccc32)CCN1CCC(C)C [ER]
31.6 to 97.7 nM

// Kb lookup, key: CCOC(=O)CC1CN(C2=Nc3ccccc3Oc3ccc(Cl)cc32)CCN1 (single isomer, unassigned) [Compound C]
31.6 to 97.7 nM

// Kb lookup, key: C[C@@H](O)CNC(=O)C[C@H]1CN(C2=Nc3cc(Cl)ccc3Oc3ccccc32)CCN1 [FB]
< 3.09 nM

// Kb lookup, key: CC(C)OC(=O)CC1CN(C2=Nc3cc(Cl)ccc3Oc3ccccc32)CCN1 (stereo not drawn) [L]
10 to 30.9 nM

// Kb lookup, key: CC(C)OC(=O)CC1CN(C2=Nc3ccc(F)cc3Oc3ccccc32)CCN1 (stereo not drawn) [M]
10 to 30.9 nM

// Kb lookup, key: O=C(C[C@H]1CN(C2=Nc3cc(Cl)ccc3Oc3ccccc32)CCN1)NCCO [FA]
3.16 to 9.77 nM

// Kb lookup, key: O=C(O)CC1CN(C2=Nc3cc(Cl)ccc3Oc3ccccc32)CCN1 (stereo not drawn) [Compound E]
31.6 to 97.7 nM

// Kb lookup, key: CCOC(=O)CC1CN(C2=Nc3cc(Cl)ccc3Oc3ccccc32)CCN1C (stereo not drawn) [DN]
31.6 to 97.7 nM

// Kb lookup, key: COCCNC(=O)C[C@H]1CN(C2=Nc3cc(Cl)ccc3Oc3ccccc32)CCN1CCO [GI]
31.6 to 97.7 nM
